Test summary: in vivo
Cond: male, Swiss Albino, mouse, sc, 5 mg/kg, Plasma concentration
Where a SMILES comes first, the peptide text is derived from it. [ ]: non-standard residue; d: D form. dNMeI = CC[C@@H](C)[C@@H](NC)C(=O)O; NMeL = CN[C@@H](CC(C)C)C(=O)O

| Molecule | level at 3 h [ng/mL] |
| --- | --- |
| CC[C@@H](C)[C@H]1NC(=O)[C@H]([C@@H](C)CC)NC(=O)[C@H](CC(C)C)N(C)C(=O)[C@H]2CCCN2C(=O)[C@@H]([C@H](C)CC)NC(=O)[C@@H]([C@H](C)CC)N(C)C(=O)[C@H](CC(C)C)NC(=O)[C@H]2CCCN2C(=O)[C@@H]2CCCN2C(=O)[C@H](C(C)C)NC(=O)[C@H]2CCCN2C1=O [Design D11.3, VPpL*iip*LIip] (cyclo(I[dI][dP]VP[dP]L[dNMeI][dI][dP][NMeL])) | 128 |

* * *

Test summary: Pharmacokinetics of D10.1 after PO, SQ and IV dosing in mice
Cond: female, Balb/C, mouse, plasma, po, 12.2 mg/kg

| Compound | Display unit | level at time molar at 6 h |
| --- | --- | --- |
| CC[C@H](C)[C@@H]1NC(=O)[C@@H](CC(C)C)NC(=O)[C@H](CC(C)C)N(C)C(=O)[C@H](Cc2ccccc2)NC(=O)CN(C)C(=O)[C@@H]2CCCN2C(=O)[C@H](C(C)C)NC(=O)[C@H](Cc2ccccc2)N(C)C(=O)[C@H]2CCCN2C(=O)[C@H](CC(C)C)NC1=O | nM | 70 |

* * *

Test summary: Pharmacokinetics of D10.1 after PO, SQ and IV dosing in mice
Cond: female, Balb/C, mouse, plasma, sc, 12.2 mg/kg
Measure: level at time molar at 6 h (nM)

| Compound | Measure | Obs value |
| --- | --- | --- |
| CC[C@H](C)[C@@H]1NC(=O)[C@@H](CC(C)C)NC(=O)[C@H](CC(C)C)N(C)C(=O)[C@H](Cc2ccccc2)NC(=O)CN(C)C(=O)[C@@H]2CCCN2C(=O)[C@H](C(C)C)NC(=O)[C@H](Cc2ccccc2)N(C)C(=O)[C@H]2CCCN2C(=O)[C@H](CC(C)C)NC1=O | level at time molar at 6 h | 2290 |

* * *

Test summary: in vivo
Cond: male, Swiss Albino, mouse, sc, 5 mg/kg
Where a SMILES comes first, the peptide text is derived from it. [ ]: non-standard residue; d: D form. dNMeI = CC[C@@H](C)[C@@H](NC)C(=O)O; NMeL = CN[C@@H](CC(C)C)C(=O)O

| Compound | bioavailability [%] |
| --- | --- |
| CC[C@@H](C)[C@H]1NC(=O)[C@H]([C@@H](C)CC)NC(=O)[C@H](CC(C)C)N(C)C(=O)[C@H]2CCCN2C(=O)[C@@H]([C@H](C)CC)NC(=O)[C@@H]([C@H](C)CC)N(C)C(=O)[C@H](CC(C)C)NC(=O)[C@H]2CCCN2C(=O)[C@@H]2CCCN2C(=O)[C@H](C(C)C)NC(=O)[C@H]2CCCN2C1=O [Design D11.3, VPpL*iip*LIip] (cyclo(I[dI][dP]VP[dP]L[dNMeI][dI][dP][NMeL])) | 8.48 |
